Hi there, I'd appreciate the recorded pIC50 for every entry that follows.
System: MCF7
Test: Cytotoxicity against human MCF7 cells after 72 hrs by SRB assay
Assay type: functional, cell-based
Conditions: Homo sapiens, MCF7, 72 h; read-out: IC50
Give bare numbers, as −log10 of the molar value.

Recorded results for 4 compounds are shown here.
{"columns": ["sample_smiles", "pIC50"],
 "data": [
  ["O=c1[nH]cc(F)c(=O)[nH]1", 5.85],
  ["O=C(/C=C/c1cn(-c2ccccc2)nc1-c1ccncc1)NCCc1cccnc1", 4.79],
  ["O=C(/C=C/c1cn(-c2ccccc2)nc1-c1cccnc1)NCc1cccnc1", 4.51],
  ["O=C(/C=C/c1cn(-c2ccccc2)nc1-c1cccnc1)NCCc1ccccn1", 4.60]
]}

// next item, pIC50 requested
Tell me its pIC50 given Cc1nccn1CCNC(=O)/C=C/c1cn(-c2ccccc2)nc1-c1cccnc1 as the entry. 4.66

----------
System: MCF7
Assay: Cytotoxicity against human MCF7 cells after 72 hrs by SRB assay
Format: functional, cell-based
Settings: Homo sapiens, MCF7, 72 h; read-out: IC50
Hi there, I'd appreciate the recorded pIC50 for every entry that follows.
Answers are plain numbers, as −log10 of the molar value.

Recorded results for 3 compounds are shown here.
{"columns": ["sample_smiles", "experimental_target", "pIC50"],
 "data": [
  ["O=C(/C=C/c1cn(-c2ccccc2)nc1-c1ccncc1)NCCc1ccccn1", "MCF7", 4.91],
  ["Cc1nccn1CCCNC(=O)/C=C/c1cn(-c2ccccc2)nc1-c1cccnc1", "MCF7", 4.60],
  ["O=C(/C=C/c1cn(-c2ccccc2)nc1-c1cccnc1)NCCc1cccnc1", "MCF7", 4.51]
]}

Here are 4 compounds. What values of pIC50 were reported for them?
1. O=C(/C=C/c1cn(-c2ccccc2)nc1-c1ccncc1)NCCc1ccncc1
2. O=C(/C=C/c1cn(-c2ccccc2)nc1-c1cccnc1)NCc1ccccn1
3. CS(=O)(=O)c1ccc(-n2cc(/C=C/C(=O)NCCc3ccccn3)c(-c3cccnc3)n2)cc1
4. O=C(/C=C/c1cn(-c2ccccc2)nc1-c1cccnc1)NCCCn1ccnc1

1. 4.96
2. 4.56
3. 4.84
4. 4.81

----------
Molecular target: COX1 (Prostaglandin G/H synthase 1) (Ovis aries)
Sequence (P05979 whole entry): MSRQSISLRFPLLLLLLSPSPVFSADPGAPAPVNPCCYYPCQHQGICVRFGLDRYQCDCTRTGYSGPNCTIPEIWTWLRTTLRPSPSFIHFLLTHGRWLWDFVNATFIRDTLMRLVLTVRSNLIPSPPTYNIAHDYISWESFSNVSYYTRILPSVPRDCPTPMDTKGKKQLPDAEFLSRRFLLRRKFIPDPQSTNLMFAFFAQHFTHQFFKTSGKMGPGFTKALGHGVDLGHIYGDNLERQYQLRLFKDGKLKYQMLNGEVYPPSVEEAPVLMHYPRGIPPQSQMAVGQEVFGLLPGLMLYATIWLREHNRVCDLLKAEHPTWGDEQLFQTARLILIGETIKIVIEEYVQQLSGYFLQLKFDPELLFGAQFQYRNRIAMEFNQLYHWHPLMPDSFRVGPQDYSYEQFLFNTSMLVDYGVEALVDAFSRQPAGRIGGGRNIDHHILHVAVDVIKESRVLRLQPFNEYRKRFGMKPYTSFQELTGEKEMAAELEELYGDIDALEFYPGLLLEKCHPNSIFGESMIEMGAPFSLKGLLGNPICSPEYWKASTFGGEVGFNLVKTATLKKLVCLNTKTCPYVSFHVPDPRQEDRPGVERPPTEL
Experiment: Inhibition of sheep COX1 at 10 uM assessed as reduction in PGE2 formation using arachidonic acid as substrate by enzyme immunoassay relative to control
Settings: probe arachidonic acid
observable: inhibition at 10 µM (%)
Answers are plain numbers, in %.

{"columns": ["compound", "inhibition at 10 µM (%)"],
 "data": [
  ["O=C(/C=C/c1cn(-c2ccccc2)nc1-c1cccnc1)NCc1ccncc1", 11.6]
]}

Here are 5 compounds. What values of inhibition at 10 µM were reported for them?
1. Cc1nccn1CCCNC(=O)/C=C/c1cn(-c2ccccc2)nc1-c1ccncc1
2. CS(=O)(=O)c1ccc(-n2cc(/C=C/C(=O)NCc3cccnc3)c(-c3cccnc3)n2)cc1
3. COc1ccc2c(c1)c(CC(=O)O)c(C)n2C(=O)c1ccc(Cl)cc1 [INDOMETHACIN]
4. CS(=O)(=O)c1ccc(-n2cc(/C=C/C(=O)NCCCn3ccnc3)c(-c3cccnc3)n2)cc1
5. CS(=O)(=O)c1ccc(-n2cc(/C=C/C(=O)NCCc3ccncc3)c(-c3cccnc3)n2)cc1

5.41
13.1
69.5
40.5
7.95

Here are 2 compounds. What values of inhibition at 10 µM were reported for them?
1. O=C(/C=C/c1cn(-c2ccccc2)nc1-c1cccnc1)NCCc1cccnc1
2. CS(=O)(=O)c1ccc(-n2cc(/C=C/C(=O)NCc3ccccn3)c(-c3cccnc3)n2)cc1

0.45
10.7

----------
Target: COX1 (Prostaglandin G/H synthase 1) (Ovis aries)
Assay: Inhibition of sheep COX1 at 10 uM assessed as reduction in PGE2 formation using arachidonic acid as substrate by enzyme immunoassay relative to control
Conditions: probe arachidonic acid
Hi there, I'd appreciate the recorded inhibition at 10 µM for every entry that follows.
One number for each entry, in %.

{"columns": ["sample_smiles", "inhibition at 10 µM / %"],
 "data": [
  ["CS(=O)(=O)c1ccc(-n2cc(/C=C/C(=O)NCCc3cccnc3)c(-c3cccnc3)n2)cc1", 1.31],
  ["O=C(/C=C/c1cn(-c2ccccc2)nc1-c1ccncc1)NCc1cccnc1", 13.7]
]}

Here are 5 compounds. What values of inhibition at 10 µM were reported for them?
1. Cc1nccn1CCNC(=O)/C=C/c1cn(-c2ccccc2)nc1-c1ccncc1
2. O=C(/C=C/c1cn(-c2ccccc2)nc1-c1cccnc1)NCCc1ccncc1
3. Cc1nccn1CCCNC(=O)/C=C/c1cn(-c2ccccc2)nc1-c1cccnc1
4. O=C(/C=C/c1cn(-c2ccccc2)nc1-c1cccnc1)NCc1cccnc1
5. O=C(/C=C/c1cn(-c2ccccc2)nc1-c1ccncc1)NCc1ccccn1

16.9
10.2
0.32
5.56
5.96

Here are 5 compounds. What values of inhibition at 10 µM were reported for them?
1. Cc1nccn1CCNC(=O)/C=C/c1cn(-c2ccccc2)nc1-c1cccnc1
2. CS(=O)(=O)c1ccc(-n2cc(/C=C/C(=O)NCCc3ccccn3)c(-c3cccnc3)n2)cc1
3. O=C(/C=C/c1cn(-c2ccccc2)nc1-c1ccncc1)NCCCn1ccnc1
4. O=C(/C=C/c1cn(-c2ccccc2)nc1-c1ccncc1)NCCc1cccnc1
5. CS(=O)(=O)c1ccc(-n2cc(/C=C/C(=O)NCc3ccncc3)c(-c3cccnc3)n2)cc1

[2.46, 54.6, 12.6, 9.37, 12.5]

Here are 4 compounds. What values of inhibition at 10 µM were reported for them?
1. O=C(/C=C/c1cn(-c2ccccc2)nc1-c1ccncc1)NCCc1ccncc1
2. O=C(/C=C/c1cn(-c2ccccc2)nc1-c1cccnc1)NCCc1ccccn1
3. O=C(/C=C/c1cn(-c2ccccc2)nc1-c1cccnc1)NCc1ccccn1
4. O=C(/C=C/c1cn(-c2ccccc2)nc1-c1ccncc1)NCCc1ccccn1

1: 26.6; 2: 3.21; 3: 11.3; 4: 13.1

Here are 4 compounds. What values of inhibition at 10 µM were reported for them?
1. O=C(/C=C/c1cn(-c2ccccc2)nc1-c1ccncc1)NCc1ccncc1
2. Cc1nccn1CCCNC(=O)/C=C/c1cn(-c2ccc(S(C)(=O)=O)cc2)nc1-c1cccnc1
3. Cc1nccn1CCNC(=O)/C=C/c1cn(-c2ccc(S(C)(=O)=O)cc2)nc1-c1cccnc1
4. O=C(/C=C/c1cn(-c2ccccc2)nc1-c1cccnc1)NCCCn1ccnc1

1. 5.82
2. 36.8
3. 29.6
4. 0.12

----------
Hi there, I'd appreciate the recorded inhibition at 100 µM for every entry that follows.
Test system: Platelet
Experiment: Antiplatelet activity in human platelet rich plasma assessed as inhibition of collagen-induced platelet aggregation at 100 uM preincubated for 5 mins followed by arachidonic acid addition measured for 3 mins by aggregometric analysis relative to control
Type: functional
Give bare numbers, in %.

Recorded results for 6 molecules are shown here.
{"columns": ["sample_smiles", "units_text", "measured_result"],
 "data": [
  ["Cc1nccn1CCCNC(=O)/C=C/c1cn(-c2ccc(S(C)(=O)=O)cc2)nc1-c1cccnc1", "%", 11.1],
  ["CS(=O)(=O)c1ccc(-n2cc(/C=C/C(=O)NCCc3ccncc3)c(-c3cccnc3)n2)cc1", "%", 71.8],
  ["CC(=O)Oc1ccccc1C(=O)O", "%", 100],
  ["O=C(/C=C/c1cn(-c2ccccc2)nc1-c1ccncc1)NCc1cccnc1", "%", 63.4],
  ["O=C(/C=C/c1cn(-c2ccccc2)nc1-c1cccnc1)NCc1cccnc1", "%", 63.3],
  ["Cc1nccn1CCNC(=O)/C=C/c1cn(-c2ccc(S(C)(=O)=O)cc2)nc1-c1cccnc1", "%", 8.6]
]}

Here are 8 molecules. What values of inhibition at 100 µM were reported for them?
1. O=C(/C=C/c1cn(-c2ccccc2)nc1-c1ccncc1)NCc1ccccn1
2. O=C(/C=C/c1cn(-c2ccccc2)nc1-c1cccnc1)NCc1ccccn1
3. Cc1nccn1CCNC(=O)/C=C/c1cn(-c2ccccc2)nc1-c1cccnc1
4. O=C(/C=C/c1cn(-c2ccccc2)nc1-c1ccncc1)NCCc1ccncc1
5. O=C(/C=C/c1cn(-c2ccccc2)nc1-c1ccncc1)NCCc1cccnc1
6. O=C(/C=C/c1cn(-c2ccccc2)nc1-c1ccncc1)NCCCn1ccnc1
7. CS(=O)(=O)c1ccc(-n2cc(/C=C/C(=O)NCc3ccccn3)c(-c3cccnc3)n2)cc1
8. CS(=O)(=O)c1ccc(-n2cc(/C=C/C(=O)NCc3cccnc3)c(-c3cccnc3)n2)cc1

1: 41.6; 2: 56.5; 3: 15.5; 4: 74.6; 5: 86.9; 6: 88.9; 7: 59.8; 8: 64.1

Here are 4 molecules. What values of inhibition at 100 µM were reported for them?
1. Cc1nccn1CCCNC(=O)/C=C/c1cn(-c2ccccc2)nc1-c1cccnc1
2. O=C(/C=C/c1cn(-c2ccccc2)nc1-c1cccnc1)NCc1ccncc1
3. CS(=O)(=O)c1ccc(-n2cc(/C=C/C(=O)NCCc3ccccn3)c(-c3cccnc3)n2)cc1
4. O=C(/C=C/c1cn(-c2ccccc2)nc1-c1cccnc1)NCCCn1ccnc1

60.3
36.6
78.7
86.5

Here are 8 molecules. What values of inhibition at 100 µM were reported for them?
1. Cc1nccn1CCCNC(=O)/C=C/c1cn(-c2ccccc2)nc1-c1ccncc1
2. CS(=O)(=O)c1ccc(-n2cc(/C=C/C(=O)NCCCn3ccnc3)c(-c3cccnc3)n2)cc1
3. O=C(/C=C/c1cn(-c2ccccc2)nc1-c1ccncc1)NCCc1ccccn1
4. O=C(/C=C/c1cn(-c2ccccc2)nc1-c1cccnc1)NCCc1ccncc1
5. CS(=O)(=O)c1ccc(-n2cc(/C=C/C(=O)NCCc3cccnc3)c(-c3cccnc3)n2)cc1
6. O=C(/C=C/c1cn(-c2ccccc2)nc1-c1cccnc1)NCCc1cccnc1
7. CS(=O)(=O)c1ccc(-n2cc(/C=C/C(=O)NCc3ccncc3)c(-c3cccnc3)n2)cc1
8. Cc1nccn1CCNC(=O)/C=C/c1cn(-c2ccccc2)nc1-c1ccncc1

1: 41.3; 2: 52.6; 3: 41.9; 4: 75.9; 5: 70.3; 6: 76.6; 7: 40.9; 8: 35

Here are 2 molecules. What values of inhibition at 100 µM were reported for them?
1. O=C(/C=C/c1cn(-c2ccccc2)nc1-c1ccncc1)NCc1ccncc1
2. O=C(/C=C/c1cn(-c2ccccc2)nc1-c1cccnc1)NCCc1ccccn1

1. 50.1
2. 21.9

Recorded values, source ChEMBL document CHEMBL4257497.
